test: Pharmacokinetic evaluation in mice (IV and oral gavage)
Assay type: in vivo, female Balb/c nude mice
recordedConditions: mouse, plasma; IV tail vein 2 mg/kg, female Balb/c nude mice
measuredMetric: AUC(0-t) (µM·h)

C=CC(=O)Nc1cccc(C)c1Nc1ncc(/C=C(\F)c2c(Cl)c(OC)cc(OC)c2Cl)cn1: 1.32
C=CC(=O)N[C@H]1COC[C@H]1Nc1ncc(OCc2c(Cl)c(OC)cc(OC)c2Cl)cn1 [Control example 8]: 1.8

P: C=CC(=O)Nc1cccc(C)c1Nc1ncc(OCc2c(F)c(OC)cc(OC)c2F)cn1 [Control example 6]
Q: C=CC(=O)N[C@H]1CCOC[C@H]1Nc1ncc(OCc2c(F)c(OC)cc(OC)c2F)cn1 [Control example 4]
R: C=CC(=O)NC1COCC1Nc1ncc(C=C(F)c2c(Cl)c(OC)cc(OC)c2Cl)cn1 (single isomer, unassigned)
S: C=CC(=O)N[C@H]1CCOC[C@H]1Nc1ncc(/C=C(\F)c2c(Cl)c(OC)cc(OC)c2Cl)cn1
IN: Sort the 4 molecules by AUC(0-t); largest first, smallest last. Enter labels, ranked according to the request.
OUT: S, R, Q, P
(S: 2.8 µM·h, R: 1.42 µM·h, Q: 0.958 µM·h, P: 0.388 µM·h)

* * *

targetOrSystem: FGFR4 kinases (Homo sapiens)
Sequence (P22455 22-802): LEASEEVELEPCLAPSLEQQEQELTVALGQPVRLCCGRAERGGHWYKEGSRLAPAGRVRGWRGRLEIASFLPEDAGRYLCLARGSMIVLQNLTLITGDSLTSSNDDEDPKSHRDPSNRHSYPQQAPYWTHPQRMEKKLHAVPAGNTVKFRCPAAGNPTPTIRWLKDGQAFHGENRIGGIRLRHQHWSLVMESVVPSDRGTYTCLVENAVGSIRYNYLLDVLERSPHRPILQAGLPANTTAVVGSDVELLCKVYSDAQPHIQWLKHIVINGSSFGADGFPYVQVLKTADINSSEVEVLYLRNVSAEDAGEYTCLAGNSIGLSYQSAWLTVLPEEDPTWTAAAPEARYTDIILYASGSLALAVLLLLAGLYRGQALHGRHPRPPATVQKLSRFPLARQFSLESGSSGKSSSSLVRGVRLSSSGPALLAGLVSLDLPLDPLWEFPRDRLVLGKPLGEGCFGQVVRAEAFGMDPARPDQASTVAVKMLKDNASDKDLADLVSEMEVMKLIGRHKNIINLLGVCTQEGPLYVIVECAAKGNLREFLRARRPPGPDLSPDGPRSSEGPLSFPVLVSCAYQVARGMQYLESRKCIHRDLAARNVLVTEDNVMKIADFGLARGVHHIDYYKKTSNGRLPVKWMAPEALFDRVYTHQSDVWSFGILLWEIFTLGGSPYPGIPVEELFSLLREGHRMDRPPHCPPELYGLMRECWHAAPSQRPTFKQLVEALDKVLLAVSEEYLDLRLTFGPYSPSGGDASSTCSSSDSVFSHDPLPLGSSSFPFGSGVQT
measuredMetric: IC50 (nM)

// solved cases for IC50 follow
C=CC(=O)Nc1cccc(C)c1Nc1ccc(/C(F)=C/c2cc(OC)cc(OC)c2)cn1 [Control example 1, reference compound]: 8060
C=CC(=O)Nc1cccc(F)c1Nc1ccc(/C=C(\F)c2c(Cl)c(OC)cc(OC)c2Cl)cn1: 105
C=CC(=O)Nc1cccc(F)c1Nc1ccc(/C(F)=C/c2c(Cl)c(OC)cc(OC)c2Cl)cn1: 124
C=CC(=O)N[C@H]1COC[C@H]1Nc1ncc(/C=C(\F)c2c(Cl)c(OC)cc(OC)c2Cl)cn1: 47
C=CC(=O)Nc1cc(N2CCN(C(C)=O)CC2)cc(C)c1Nc1ncc(/C=C(\F)c2c(Cl)c(OC)cc(OC)c2Cl)cn1: 13
C=CC(=O)Nc1cccc(C)c1Nc1ccc(/C(F)=C(\C)c2c(Cl)c(OC)cc(OC)c2Cl)cn1: 544

I: C=CC(=O)Nc1cccc(C)c1Nc1ncc(/C(F)=C/c2c(Cl)c(OC)cc(OC)c2Cl)cn1
II: C=CC(=O)Nc1cc(F)cc(C)c1Nc1ccc(/C=C(\F)c2c(Cl)c(OC)cc(OC)c2Cl)cn1
III: C=CC(=O)N[C@H]1COC[C@H]1Nc1ncc(/C=C/c2c(Cl)c(OC)cc(OC)c2Cl)cn1 [Control example 3, reference compound]
IV: C=CC(=O)Nc1ccc(N2CCN(CC)CC2)c(C)c1Nc1ncc(/C=C(\F)c2c(Cl)c(OC)cc(OC)c2Cl)cn1
V: C=CC(=O)Nc1cc(N2CCN(CC)CC2)c(OC)cc1Nc1ncc(/C=C(\F)c2c(Cl)c(OC)cc(OC)c2Cl)cn1
IN: Put the items in order so that reported IC50 rises from first to last. Return the labels ranked in the requested order, please.
OUT: V, IV, I, II, III

P: C=CC(=O)Nc1cccc(C)c1Nc1ccc(/C(F)=C/c2c(Cl)c(OC)cc(OC)c2Cl)cn1
Q: C=CC(=O)Nc1cccc(C)c1Nc1cnc(/C(F)=C/c2c(Cl)c(OC)cc(OC)c2Cl)cn1
R: C=CC(=O)N[C@@H]1COC[C@@H]1Nc1ncc(/C(F)=C/c2c(Cl)c(OC)cc(OC)c2Cl)cn1
S: C=CC(=O)Nc1cc(N2CCN(CC)CC2)cc(C)c1Nc1ncc(/C=C/c2c(Cl)c(OC)cc(OC)c2Cl)cn1 [Control example 2, reference compound]
IN: Sort by IC50, descending. Show the ranking through the labels, in the order asked for.
OUT: R, Q, P, S
